Assay target: JAK3 JH1 catalytic (human)
Assay protocol: KINOMEscan competition binding
Test parameters: compound 10.0 µM
Measure name: kinase still bound, per cent of control (%)
Numbers only; they are read as %.

The examples below pair each entry with its known result.
Compound: O=C(NC1CC1)c1cccc(-c2ccc3c(NC(=O)C4CC4)n[nH]c3c2)c1
Result unit: %
kinase still bound, per cent of control: 27

Compound: COc1cc(C(=O)NC2CCN(C)CC2)ccc1Nc1ncc2c(n1)N(C1CCCC1)CCC(=O)N2C(C)C
Result unit: %
kinase still bound, per cent of control: 100

Compound: OCCCNc1cc(-c2ccnc(Nc3cccc(Cl)c3)n2)ccn1
Result unit: %
kinase still bound, per cent of control: 100

Compound: O=C(NOC[C@H](O)CO)c1ccc(F)c(F)c1Nc1ccc(I)cc1F
Result unit: %
kinase still bound, per cent of control: 100

Compound: Cc1cc([C@@H](C)Nc2ccccc2C(=O)O)c2nc(N3CCOCC3)cc(=O)n2c1
Result unit: %
kinase still bound, per cent of control: 94

Compound: CN(C)C/C=C/C(=O)Nc1cccc(Nc2ncc3c(n2)N(C)c2ccccc2C(=O)N3C)c1
Result unit: %
kinase still bound, per cent of control: 1.2

Compound: C=CC(=O)Nc1cccc(Nc2nc(N[C@H]3CC[C@H](N(C)C)CC3)nc3c2ncn3C(C)C)c1
Result unit: %
kinase still bound, per cent of control: 89

Compound: CCOc1cc2ncc(C#N)c(Nc3ccc(OCc4ccccn4)c(Cl)c3)c2cc1NC(=O)/C=C/CN(C)C
Result unit: %
kinase still bound, per cent of control: 100

// map "CCN1CCN(Cc2ccc(Nc3ncc4c(n3)N(C)c3ccccc3C(=O)N4C)cc2C(F)(F)F)CC1" to recorded kinase still bound, per cent of control (system: JAK3 JH1 catalytic (human)) 9.8

// map COc1cc(C(=O)NC2CCN(C)CC2)ccc1Nc1ncc2c(n1)N(C1CCCC1)C(C)CC(=O)N2C (centres undefined) to recorded kinase still bound, per cent of control (system: JAK3 JH1 catalytic (human)) 100

// map "N#Cc1c(NC(=O)c2cccc3ccccc23)sc2c1CCCC2" to recorded kinase still bound, per cent of control (system: JAK3 JH1 catalytic (human)) 98

// map "CCCS(=O)(=O)Nc1ccc(F)c(C(=O)c2c[nH]c3ncc(-c4ccc(Cl)cc4)cc23)c1F" to recorded kinase still bound, per cent of control (system: JAK3 JH1 catalytic (human)) 83

// map "CC[C@@H]1C(=O)N(C)c2cnc(Nc3ccc(C(=O)NC4CCN(C)CC4)cc3OC)nc2N1C1CCCC1" to recorded kinase still bound, per cent of control (system: JAK3 JH1 catalytic (human)) 100

// map "CCC(=O)N1CCN(c2ccc(-n3c(=O)ccc4cnc5ccc(-c6cnc7ccccc7c6)cc5c43)cc2C(F)(F)F)CC1" to recorded kinase still bound, per cent of control (system: JAK3 JH1 catalytic (human)) 100

// map "Cc1ccc2nc(NCCN)c3ncc(C)n3c2c1" to recorded kinase still bound, per cent of control (system: JAK3 JH1 catalytic (human)) 100

// map "C=CC(=O)Nc1cccc(Oc2nc(Nc3ccc(N4CCN(C)CC4)cc3OC)ncc2Cl)c1" to recorded kinase still bound, per cent of control (system: JAK3 JH1 catalytic (human)) 0.4

// map "COc1cc(N2CCN(C)CC2)ccc1Nc1nc(N)c(C(=O)c2c(Cl)cccc2Cl)s1" to recorded kinase still bound, per cent of control (system: JAK3 JH1 catalytic (human)) 100

// map "O=C1Nc2ccc(I)cc2/C1=C/c1cc(Br)c(O)c(Br)c1" to recorded kinase still bound, per cent of control (system: JAK3 JH1 catalytic (human)) 14

// map "C=CC(=O)Nc1cc(NC(=O)c2ccc(C)c(NC(=O)c3ccno3)c2)cc(C(F)(F)F)c1" to recorded kinase still bound, per cent of control (system: JAK3 JH1 catalytic (human)) 100
